- test-system: Fatty-acid amide hydrolase 1 (Homo sapiens)
- Sequence (O00519 whole entry): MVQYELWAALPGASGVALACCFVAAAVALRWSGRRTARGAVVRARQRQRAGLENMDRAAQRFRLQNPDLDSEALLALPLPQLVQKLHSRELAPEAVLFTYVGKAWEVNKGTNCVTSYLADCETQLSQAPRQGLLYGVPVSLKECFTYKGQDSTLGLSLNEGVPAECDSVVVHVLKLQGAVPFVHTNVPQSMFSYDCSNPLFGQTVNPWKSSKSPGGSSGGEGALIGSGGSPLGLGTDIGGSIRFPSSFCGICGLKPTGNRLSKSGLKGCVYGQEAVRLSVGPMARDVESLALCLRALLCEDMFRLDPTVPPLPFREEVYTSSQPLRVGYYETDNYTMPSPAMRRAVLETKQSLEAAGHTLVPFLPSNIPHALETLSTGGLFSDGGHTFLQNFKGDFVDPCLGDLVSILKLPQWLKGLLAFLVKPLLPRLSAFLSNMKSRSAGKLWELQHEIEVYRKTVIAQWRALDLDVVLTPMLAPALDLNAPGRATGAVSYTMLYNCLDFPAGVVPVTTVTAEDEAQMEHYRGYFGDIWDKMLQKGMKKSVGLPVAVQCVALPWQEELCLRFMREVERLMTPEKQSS
Quick list: IC50 per entry.
measure: IC50

molecule_smiles=O=C(NC1CN(C2CN(C(=O)c3ccc4nc(-c5ccccc5)oc4c3)C2)C1)c1nccs1 test_system="Fatty-acid amide hydrolase 1 (Homo sapiens)" observed="> 10 µM"
molecule_smiles=O=C(NC1CN(C2CN(C(=O)c3ccc(-c4cccc(C(F)(F)F)c4)cc3)C2)C1)c1nccs1 test_system="Fatty-acid amide hydrolase 1 (Homo sapiens)" observed="> 10 µM"
